STUDY_TARGET: T1, ITGA2 protein on the surface of human tumor cells (human, UniProt P17301 30-1181)
T1 construct: whole, on cells; Endogenously expressed; the cell line is named under assay or readout; also called Integrin alpha-2; ITGA2-positive HuCCT1 cells
T1 sequence (looked up): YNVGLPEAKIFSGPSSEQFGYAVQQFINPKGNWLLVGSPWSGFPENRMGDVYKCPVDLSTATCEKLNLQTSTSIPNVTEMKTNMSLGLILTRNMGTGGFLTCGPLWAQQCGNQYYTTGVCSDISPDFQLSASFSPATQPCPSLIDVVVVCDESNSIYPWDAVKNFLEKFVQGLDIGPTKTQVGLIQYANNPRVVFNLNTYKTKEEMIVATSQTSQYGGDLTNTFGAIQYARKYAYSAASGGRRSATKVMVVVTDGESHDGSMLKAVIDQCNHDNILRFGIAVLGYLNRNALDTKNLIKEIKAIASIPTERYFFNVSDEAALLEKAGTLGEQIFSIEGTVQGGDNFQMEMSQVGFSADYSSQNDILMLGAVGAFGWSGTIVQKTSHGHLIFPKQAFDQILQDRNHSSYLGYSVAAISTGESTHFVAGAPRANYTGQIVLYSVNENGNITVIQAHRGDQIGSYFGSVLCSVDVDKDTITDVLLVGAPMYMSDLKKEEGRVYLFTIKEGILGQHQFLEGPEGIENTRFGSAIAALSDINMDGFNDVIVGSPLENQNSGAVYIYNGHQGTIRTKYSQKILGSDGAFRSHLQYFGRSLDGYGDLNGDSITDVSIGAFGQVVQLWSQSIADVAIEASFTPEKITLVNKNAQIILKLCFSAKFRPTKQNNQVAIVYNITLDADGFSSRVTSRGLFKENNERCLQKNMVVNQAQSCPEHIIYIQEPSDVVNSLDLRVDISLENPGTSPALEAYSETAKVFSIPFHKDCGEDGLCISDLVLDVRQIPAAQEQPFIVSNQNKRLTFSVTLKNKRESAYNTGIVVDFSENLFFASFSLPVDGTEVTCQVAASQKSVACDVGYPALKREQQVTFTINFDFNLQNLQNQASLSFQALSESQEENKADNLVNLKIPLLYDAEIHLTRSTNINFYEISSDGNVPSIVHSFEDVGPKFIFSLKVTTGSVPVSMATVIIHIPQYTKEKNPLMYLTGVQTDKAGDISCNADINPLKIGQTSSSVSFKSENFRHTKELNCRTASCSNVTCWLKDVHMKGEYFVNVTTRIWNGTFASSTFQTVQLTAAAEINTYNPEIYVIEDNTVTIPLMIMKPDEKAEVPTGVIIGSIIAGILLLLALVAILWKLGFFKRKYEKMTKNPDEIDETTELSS
TEST_METHOD_NOTES: flow cytometry on HuCCT1 cells
METRIC_NAME: EC50 (nM)
One number for each entry, in nM.

Humanized antibody FS002-A226-H4L3 (antibody, human IgG1, kappa, V domains shown, Humanized IgG1 kappa) VH: QVQLVQSGAEVKKPGASVKVSCKASGYTFTDYEIHWVRQAPGQGLEWIGAIDPETGGTNYNQKFQGRVTLTADTSISTAYMELSRLRSDDTAVYYCSRSGYYVSNYESYAMDYWGQGTTVTVSS VL: DIQITQSPSSMSASVGDRVTITCKASQDIKSYLSWYQQKPGKAPKLLIYDTSNLASGVPSRFSGSGSGTDYTLTISSLQPEDFATYYCQQWSSYPFTFGGGTKLEIKR ... 0.533

Now for the binder whose EC50 we want.
[Q] Given the entry Humanized antibody FS002-A153-H4L2 (antibody, human IgG1, kappa, V domains shown, Humanized IgG1 kappa) VH: QVQLVQSGAEVKKPGASVKVSCKASGYTFTDYEMHWVRQAPGQGLEWMGTIDPETGGTTYAQKFQGRVTLTADTSISTAYMELSRLRSDDTAVYYCSRSGYYVSSYESYAMDYWGQGTTVTVSS VL: DIVMTQSPDSLAVSLGERVTMNCKSSQSLLNSGNQKNYLTWYQQKPGQPPKLLIYGASTRESGVPDRFSGSGSGTDFTLTISSLQAEDVAVYYCQNDYSYPFTFGGGTKLEIKR , report its measured EC50.
[A] 0.313
